TARGET_ENTITY: A. aegypti AKHR-IA receptor (AKHR-IA) (Aedes aegypti)
Sequence (A0A2P1A8S4 1-410): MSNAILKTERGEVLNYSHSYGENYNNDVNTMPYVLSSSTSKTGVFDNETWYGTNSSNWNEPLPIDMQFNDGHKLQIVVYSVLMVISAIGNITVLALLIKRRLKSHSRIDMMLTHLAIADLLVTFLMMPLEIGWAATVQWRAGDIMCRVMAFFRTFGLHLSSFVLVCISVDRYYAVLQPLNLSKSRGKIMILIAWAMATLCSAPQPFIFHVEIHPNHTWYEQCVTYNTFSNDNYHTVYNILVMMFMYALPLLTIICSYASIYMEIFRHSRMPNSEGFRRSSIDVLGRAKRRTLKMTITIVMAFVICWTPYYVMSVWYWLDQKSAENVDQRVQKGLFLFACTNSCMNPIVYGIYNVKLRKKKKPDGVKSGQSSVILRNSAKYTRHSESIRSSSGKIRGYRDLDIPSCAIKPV
ASSAY_PROTOCOL: Calcium bioluminescence (aequorin) reporter assay of heterologously expressed AKHR-IA
ASSAY_CONTEXT: CHO-K1 cells stably expressing aequorin, transiently transfected with AKHR-IA (pcDNA3.1+); luminescence 20 s; 3 to 4 independent biological replicates; ND = no determined EC50 due to minimal or no detectable activity up to 10 μM
Non-standard residues stand in square brackets, D forms with d. Residues, ends and D or L forms follow the SMILES beside them. pGlu = O=C1CC[C@@H](C(=O)O)N1
Grouping key: EC50. Bins: A (below 20 nM), B (20 nM to below 700 nM), C (700 nM or more)

Which class holds CC(C)C[C@H](NC(=O)[C@@H]1CCC(=O)N1)C(=O)N[C@@H](CC(N)=O)C(=O)N[C@@H](Cc1ccccc1)C(=O)N[C@H](C(=O)N1CCC[C@H]1C(=O)N[C@@H](CC(N)=O)C(=O)N[C@@H](Cc1c[nH]c2ccccc12)C(N)=O)[C@@H](C)O [Pyrap-AKH] ([pGlu]LNFTPNW-NH2) ?
C

// return the class label for CC(C)C[C@H](NC(=O)[C@@H]1CCC(=O)N1)C(=O)N[C@@H](CC(N)=O)C(=O)N[C@@H](Cc1ccccc1)C(=O)N[C@H](C(=O)N1CCC[C@H]1C(=O)N[C@@H](CO)C(=O)N[C@@H](Cc1c[nH]c2ccccc12)C(N)=O)[C@@H](C)O [Erysi-AKH] ([pGlu]LNFTPSW-NH2)
B

Form: Item = CC(C)[C@H](NC(=O)[C@@H]1CCC(=O)N1)C(=O)N[C@@H](CC(N)=O)C(=O)N[C@@H](Cc1ccccc1)C(=O)N[C@@H](CO)C(=O)N[C@H](C(=O)NCC(=O)N[C@@H](Cc1c[nH]c2ccccc12)C(N)=O)[C@@H](C)O [Grybi-AKH] ([pGlu]VNFSTGW-NH2) ; Class = ?
C

Using the reported EC50, which band applies to CC(C)[C@H](NC(=O)[C@@H]1CCC(=O)N1)C(=O)N[C@@H](CC(N)=O)C(=O)N[C@@H](Cc1ccccc1)C(=O)N[C@H](C(=O)N1CCC[C@H]1C(=O)N[C@@H](CO)C(=O)N[C@@H](Cc1c[nH]c2ccccc12)C(N)=O)[C@@H](C)O [Libau-AKH] ([pGlu]VNFTPSW-NH2) ?
C

Record CC(C)C[C@H](NC(=O)[C@@H]1CCC(=O)N1)C(=O)N[C@H](C(=O)N[C@@H](Cc1ccccc1)C(=O)N[C@H](C(=O)N1CCC[C@H]1C(=O)NCC(=O)N[C@@H](Cc1c[nH]c2ccccc12)C(N)=O)[C@@H](C)O)[C@@H](C)O [Tabat-AKH] ([pGlu]LTFTPGW-NH2) — which class?
A

Tag the class for CC(C)[C@H](NC(=O)[C@@H]1CCC(=O)N1)C(=O)N[C@H](C(=O)N[C@@H](Cc1ccccc1)C(=O)N[C@H](C(=O)N1CCC[C@H]1C(=O)N[C@@H](CC(N)=O)C(=O)N[C@@H](Cc1c[nH]c2ccccc12)C(N)=O)[C@@H](C)O)[C@@H](C)O [V^2-PeramCAH-II] ([pGlu]VTFTPNW-NH2)
B

---
Exam item: assign CC(C)C[C@H](NC(=O)[C@@H]1CCC(=O)N1)C(=O)N[C@H](C(=O)N[C@@H](Cc1ccccc1)C(=O)N[C@H](C(=O)N1CCC[C@H]1C(=O)NCC(=O)N[C@@H](Cc1c[nH]c2ccccc12)C(=O)NCC(=O)N[C@@H](CCC(N)=O)C(N)=O)[C@@H](C)O)[C@@H](C)O [Bommo-AKH] ([pGlu]LTFTPGWGQ-NH2) to the correct category.
B

For CC(C)C[C@H](NC(=O)[C@@H]1CCC(=O)N1)C(=O)N[C@H](C(=O)N[C@@H](Cc1ccccc1)C(=O)N[C@H](C(=O)N1CCC[C@H]1C(=O)N[C@@H](CC(N)=O)C(=O)N[C@@H](Cc1c[nH]c2ccccc12)C(N)=O)[C@@H](C)O)[C@@H](C)O [Peram-CAH-II] ([pGlu]LTFTPNW-NH2) , which EC50 bin applies?
A

Note: place this molecule into its band. Item: CC(C)C[C@H](NC(=O)[C@@H]1CCC(=O)N1)C(=O)N[C@H](C(=O)N[C@@H](Cc1ccccc1)C(=O)N[C@H](C(=O)N[C@@H](CO)C(=O)N[C@@H](CO)C(=O)N[C@@H](Cc1c[nH]c2ccccc12)C(N)=O)[C@@H](C)O)[C@@H](C)O [Hipes-AKH-I] ([pGlu]LTFTSSW-NH2)
A
